Some binders, each annotated with its measured t½.
Target: T1, SARS-CoV2 Spike ecto foldon Trimer expressed with a C-terminal myc-myc-hexahistidine (SARS-CoV-2, UniProt P0DTC2 14-1213)
T1 construct: extracellular domain
Assay: SPR Biacore, mAb captured by anti-hFc, 25C
# output: bare number, implied unit h

Recall and state the measured t½ for mAb14232 (antibody, V domains shown) VH: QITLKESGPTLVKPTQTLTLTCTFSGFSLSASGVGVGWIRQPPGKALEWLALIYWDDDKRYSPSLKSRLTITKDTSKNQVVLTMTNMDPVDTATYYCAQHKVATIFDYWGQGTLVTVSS VL: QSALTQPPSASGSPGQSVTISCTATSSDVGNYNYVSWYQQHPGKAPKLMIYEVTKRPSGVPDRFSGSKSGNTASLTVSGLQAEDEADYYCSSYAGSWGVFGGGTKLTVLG .
1.29

# return recorded t½ for entry mAb13459 (antibody, V domains shown) VH: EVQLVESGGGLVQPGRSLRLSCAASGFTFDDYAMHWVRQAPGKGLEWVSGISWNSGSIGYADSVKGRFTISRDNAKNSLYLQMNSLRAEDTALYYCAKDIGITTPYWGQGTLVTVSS VL: AIQMTQSPSSLSASVGDRVTITCRASQDIRNDLGWYQQKPGKAPKLLIYSASSLQTGVPSRFSGSGSGTDFTLTISSLHPEDFATYYCLQDYNYVWTFGQGTKVEIKR
3.52

Please report the measured t½ for mAb15151 (antibody, V domains shown) VH: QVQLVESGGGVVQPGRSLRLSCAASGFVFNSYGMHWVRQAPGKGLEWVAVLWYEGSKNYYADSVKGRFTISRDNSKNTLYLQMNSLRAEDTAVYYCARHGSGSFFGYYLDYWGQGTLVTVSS VL: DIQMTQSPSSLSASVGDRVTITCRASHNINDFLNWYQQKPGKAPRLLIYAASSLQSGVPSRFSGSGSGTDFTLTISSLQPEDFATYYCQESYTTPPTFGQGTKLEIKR
3.08
